# subject_of_test: UniProt O70536
# Sequence (O70536 whole entry): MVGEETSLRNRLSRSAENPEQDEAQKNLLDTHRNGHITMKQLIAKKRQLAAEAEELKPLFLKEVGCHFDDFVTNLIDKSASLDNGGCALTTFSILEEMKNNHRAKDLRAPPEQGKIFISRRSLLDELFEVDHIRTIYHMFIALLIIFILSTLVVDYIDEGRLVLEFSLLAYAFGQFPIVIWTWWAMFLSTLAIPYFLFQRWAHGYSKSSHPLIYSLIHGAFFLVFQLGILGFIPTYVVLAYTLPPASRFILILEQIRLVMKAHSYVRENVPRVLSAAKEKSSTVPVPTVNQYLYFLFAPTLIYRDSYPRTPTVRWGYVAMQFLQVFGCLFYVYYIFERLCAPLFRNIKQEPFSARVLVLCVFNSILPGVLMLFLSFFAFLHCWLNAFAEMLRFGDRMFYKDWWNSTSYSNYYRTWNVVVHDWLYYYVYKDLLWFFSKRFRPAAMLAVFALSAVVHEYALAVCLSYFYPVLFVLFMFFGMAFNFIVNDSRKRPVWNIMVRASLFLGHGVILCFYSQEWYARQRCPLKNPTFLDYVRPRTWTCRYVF
# experimental_protocol: In vitro inhibitory activity against acyl coenzyme A:cholesterol acyltransferase
# Design: concentration or dose not given beside the values
# condition_parameters: concentration not given here
metric: inhibition

Consider the following items and state reported inhibition for each.
1. O=C(O)c1ccc(NCCCCCCCCCCNc2ccc(C(=O)O)cc2)cc1
2. O=C(O)c1ccc(NCCCCCCCCCCCCNc2ccc(C(=O)O)cc2)cc1
3. CCCCCC(=O)CCCCCCCCCCNc1ccc(C(=O)O)cc1
4. O=C(O)c1ccc(NCCCCCCCCCCCCCCCCS)cc1

["8%", "< 60%", "< 33%", "< 38%"]

* * *

# Test system: Rattus norvegicus
# experimental_protocol: In vivo Triglyceride lowering activity at dose as 0.03 % of the diet
# Format: functional
Give measured triglyceride lowering activity for each item. Keep answers brief.

Completed entries (count: 6):
[
  {
    "compound": "CCOC(=O)c1ccc(NCCCCCCCCCCCCCCC(C)C)cc1",
    "triglyceride lowering activity": "<54%"
  },
  {
    "compound": "O=C(O)c1ccc(NCCCCCCCCCCC(F)(F)F)cc1",
    "triglyceride lowering activity": "<57%"
  },
  {
    "compound": "CCCCCCCCCCCCCCCCN(CC(=O)O)c1ccc(C(=O)O)cc1",
    "triglyceride lowering activity": "100%"
  },
  {
    "compound": "CC(C)CCCCCCCCCCCCCCNc1ccc(C(=O)O)cc1",
    "triglyceride lowering activity": "<50%"
  },
  {
    "compound": "CCCCCCCCCCCCCCCCNc1ccc(C(=O)O)cc1",
    "triglyceride lowering activity": "<45%"
  },
  {
    "compound": "O=C([O-])c1ccc(NCCCCCCCCCCCCCCCC(F)(F)F)cc1.[Na+]",
    "triglyceride lowering activity": "<39%"
  }
]

Consider the following items and state reported triglyceride lowering activity for each.
1. COCCCCCCCCCCCCCCCCNc1ccc(C(=O)O)cc1
2. O=C(O)c1ccc(NCCCCCCCCCCCO)cc1
3. O=C(O)c1ccc(NCCCCCCCCCCCOc2ccc(C(=O)O)cc2)cc1
4. CCCCCCCCCCC(=O)CCCCCNc1ccc(C(=O)O)cc1
5. O=C(O)c1ccc(NCC2CCCCC2)cc1

1. <73%
2. 101%
3. 79%
4. <68%
5. 71%

Consider the following items and state reported triglyceride lowering activity for each.
1. CCCCCCCCCCC(N)CCCCCNc1ccc(C(=O)OCC)cc1 (stereo unspecified)
2. CCOC(=O)c1ccc(NC(=O)C(F)(F)C(F)(F)C(F)(F)C(F)(F)C(F)(F)C(F)(F)C(F)(F)F)cc1

70%
<43%

Consider the following items and state reported triglyceride lowering activity for each.
1. CCCCCCCCCCC(C#N)CCCCCNc1ccc(C(=O)OCC)cc1 (stereo unspecified)
2. CCOC(=O)c1ccc(NCCCCCCCCCCCCCCCCSC(C)=O)cc1
3. CCOC(=O)c1ccc(NCCCCCCCCCCC(F)(F)F)cc1
4. CCOC(=O)c1ccc(NCCCCCCCCCCCCCCCC(=O)O)cc1
5. CCSCCCCCCCCCCCCCCCCNc1ccc(C(=O)O)cc1
6. CCOC(=O)c1ccc(NCCC[Si](C)(C)C)cc1

1. <69%
2. 75%
3. <61%
4. 133%
5. <58%
6. <63%

Consider the following items and state reported triglyceride lowering activity for each.
1. O=C(CCCCCCCCCCOc1ccc(C(=O)O)cc1)Nc1ccc(C(=O)O)cc1
2. CCCCCC(=O)CCCCCCCCCCNc1ccc(C(=O)OCC)cc1

1: 106%; 2: <58%
